# Tgt: P. falciparum apicoplast DNA polymerase (Pf-apPOL) (Plasmodium falciparum)
# Measurement Protocol: Fluorescence-based high-throughput DNA polymerase assay (molecular beacon), primary screen and dose-response
# Assay type: biochemical
# Condition Parameters: DRC-1; read at 90'; concentration 40
Measurement Type: % inhibition Apol 90' 40 (%)
Quick note: give the figure in %, leave out the unit.

• O=C(CCc1csc(NC(=O)Nc2ccccc2)n1)Nc1nc2ccccc2s1 = 63.1922
• Cn1nc(-c2nnc(-c3ccccc3F)o2)c2c1CCN(C(=O)c1ccccc1Cl)C2 = 59
• O=C1CSC2=NC3=C(CCc4ccccc43)C(c3cccs3)N12 (centres unmarked) = 60.0258
• COc1ccc(/C=C/c2cc(C(=O)O)c3ccccc3n2)cc1 = 68.5014
• Cn1nc(-c2nc(-c3ccccc3)no2)c2c1CCN(C(=O)Cc1cccs1)C2 = 58

Exercise: Return value of % inhibition Apol 90' 40 for input CC(C)CC(C(=O)O)N1C(=O)C2C3C=CC(C2C1=O)C1C(=O)N(C(CC(C)C)C(=O)O)C(=O)C31 (centres unmarked) , no commentary.
Key: 43.0787

Exercise: Give a short answer stating reported % inhibition Apol 90' 40 for "O=C(c1ccccc1)N1CCc2c(nc3cc(-c4ccccc4)[nH]n3c2=O)C1" .
Key: 75.6472

Exercise: Report % inhibition Apol 90' 40 for "Cc1ccsc1Cn1c(C)ccc1C"
Key: 39.127

###

# Tgt: P. falciparum apicoplast DNA polymerase (Pf-apPOL) (Plasmodium falciparum, UniProt Q8ILY1)
# Sequence (Q8ILY1 entry or part of it): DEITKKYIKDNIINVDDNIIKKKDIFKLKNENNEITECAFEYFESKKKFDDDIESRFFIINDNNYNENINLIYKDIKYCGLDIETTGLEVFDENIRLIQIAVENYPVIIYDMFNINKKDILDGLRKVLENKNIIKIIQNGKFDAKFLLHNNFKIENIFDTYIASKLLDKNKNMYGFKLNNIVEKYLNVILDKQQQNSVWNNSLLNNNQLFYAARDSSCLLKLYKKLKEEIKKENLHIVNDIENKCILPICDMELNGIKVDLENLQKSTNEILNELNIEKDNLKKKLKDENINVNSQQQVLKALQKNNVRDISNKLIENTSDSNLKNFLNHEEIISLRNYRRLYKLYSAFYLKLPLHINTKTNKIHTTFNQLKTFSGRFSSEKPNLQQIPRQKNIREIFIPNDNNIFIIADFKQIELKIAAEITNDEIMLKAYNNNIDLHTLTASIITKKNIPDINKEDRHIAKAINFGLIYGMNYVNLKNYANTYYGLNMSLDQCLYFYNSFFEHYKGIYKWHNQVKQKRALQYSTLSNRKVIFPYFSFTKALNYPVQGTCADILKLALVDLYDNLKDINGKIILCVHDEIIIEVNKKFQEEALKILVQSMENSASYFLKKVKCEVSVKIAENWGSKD
# Measurement Protocol: Fluorescence-based high-throughput DNA polymerase assay (molecular beacon), primary screen and dose-response;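 on % inhibition apPOL 180': test concentration in µM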
# Assay type: biochemical
# Condition Parameters: DRC-1; 180'; concentration 40
# % inhibition apPOL 180' per entry
Just the number plus its unit, please.

• O=C(O)CC1=NN(c2cccc([N+](=O)[O-])c2)C(=O)C1 = 28.0717%
• O=c1cc(-c2ccccc2Cl)oc2c(NS(=O)(=O)c3cc(Cl)cc(Cl)c3O)ccc(O)c12 = 55.1056%
• CCCCC(=O)N1CCc2c(nc3cc(-c4ccccc4Cl)[nH]n3c2=O)C1 = 57.5163%
• COc1ccc(C(=O)Nc2cccc(-c3nc4ncccc4o3)c2)cc1[N+](=O)[O-] = 6.705%
• O=C1c2ccccc2C(=O)N1Oc1ccc([N+](=O)[O-])c([N+](=O)[O-])c1 = 43.6341%

Exercise: Return % inhibition apPOL 180' for the following compound: CCCCSc1nnc2c(n1)OC(c1ccc([N+](=O)[O-])o1)Nc1ccccc1-2 (centres unmarked)
Key: 73.3106%

Exercise: Dear colleague, please send me the reported % inhibition apPOL 180' for "O=[N+]([O-])c1cc2c(cc1CN1CCCCCC1)OCO2" when you can.
Key: 27.0699%

Exercise: For the compound "Oc1ccc(N=Nc2ccccc2)c(O)c1" , give its measured % inhibition apPOL 180' value.
Key: 16.6852%

###

As shown below, each of these compounds has a reported % inhibition Apo pol 5' value.
# Tgt: P. falciparum apicoplast DNA polymerase (Pf-apPOL) (Plasmodium falciparum)
# Measurement Protocol: Fluorescence-based high-throughput DNA polymerase assay (molecular beacon), primary screen and dose-response
# Format: biochemical
# Condition Parameters: DRC-2, 5', concentration 10

- COc1cc(/C=C2\S/C(=N/C(C)=O)NC2=O)cc(Br)c1OCC(=O)O: 17%
- CCSc1nnc(NC(=O)Cc2csc(NC(=O)c3cnccn3)n2)s1: 30%
- CS(=O)(=O)c1cccc(C(=O)Nc2nnc(-c3ccno3)o2)c1: 24%
- O=C(c1c[nH]c2ncccc12)N1CCCCCC1 [Molecule 51, O=C(c1c[nH]c2c1cccn2)N1CCCCCC1]: 24%
- CCOc1ccccc1-c1nc(-c2ccc(=O)[nH]c2)no1 [Molecule 76, CCOc1ccccc1c1onc(n1)c1ccc(=O)[nH]c1]: 19%

Exercise: Recall the reported % inhibition Apo pol 5' of "O=c1cc(-c2ccccc2)oc2c(O)c(O)ccc12" when tested on P. falciparum apicoplast DNA polymerase (Pf-apPOL) (Plasmodium falciparum).
Key: 26%

Exercise: Provide the reported % inhibition Apo pol 5' (system: P. falciparum apicoplast DNA polymerase (Pf-apPOL) (Plasmodium falciparum)) for CSC(C)C(=O)C=CN(C)C (stereo not shown)
Key: 26%

Exercise: Recall the reported % inhibition Apo pol 5' of "COc1ccccc1CCC(=O)N1CCc2c(nc3cc(-c4ccccc4)[nH]n3c2=O)C1" when tested on P. falciparum apicoplast DNA polymerase (Pf-apPOL) (Plasmodium falciparum).
Key: 48%

Exercise: Please indicate recorded % inhibition Apo pol 5' of CSCCC(C)(O)CNC(=O)C1CC1 (stereo not shown) measured with P. falciparum apicoplast DNA polymerase (Pf-apPOL) (Plasmodium falciparum).
Key: 22%

Exercise: Give reported % inhibition Apo pol 5' for "O=[N+]([O-])c1cc2c(cc1CN1CCN(c3cccc(Cl)c3)CC1)OCO2" (P. falciparum apicoplast DNA polymerase (Pf-apPOL) (Plasmodium falciparum))
Key: 25%

Exercise: Please look at "Oc1ccc(N=Nc2ccccc2)c(O)c1" and tell me its recorded % inhibition Apo pol 5' on P. falciparum apicoplast DNA polymerase (Pf-apPOL) (Plasmodium falciparum).
Key: 24%

Exercise: GET % inhibition Apo pol 5' where system = P. falciparum apicoplast DNA polymerase (Pf-apPOL) (Plasmodium falciparum) and item = CCOC(=O)C(NCc1ccco1)(NC(=O)c1ccco1)C(F)(F)F (stereo not shown)
Key: 20%

Exercise: Lab note: record % inhibition Apo pol 5' of "O=[N+]([O-])c1cc2c(cc1CN1CCCCCC1)OCO2" tested on P. falciparum apicoplast DNA polymerase (Pf-apPOL) (Plasmodium falciparum).
Key: 32%

Exercise: Find the measured % inhibition Apo pol 5' of CC1=NNC(=O)C1Oc1ccc(Cl)cc1Cl (stereo not shown) with P. falciparum apicoplast DNA polymerase (Pf-apPOL) (Plasmodium falciparum) as test system.
Key: 24%
